System: HIV-1IIIB
method_summary: Inhibition test on HIV-1IIIB induced cytopathic effect (syncytium formation) of C8166
Type: cell-based
experimental_parameters: Human immunodeficiency virus 1, C8166, 72 h, HIV-1IIIB in C8166 cells, 3 days; read-out: Syncytia inhibition (EC50) 2
Strictly below 0.2 µg/mL in EC50: yes (1). Otherwise: no (0).

Enquiry: Hello, is EC50 of the following compound strictly smaller than 0.2 µg/mL? COc1c2c(cc(C(=O)O)c1-c1ccc(N(C)C)cc1)OCO2 [Compound 9]
Return: no (0)

Enquiry: Hello, is EC50 of the following compound strictly smaller than 0.2 µg/mL? COC(=O)c1cc2c(c(OC)c1-c1ccc(N3CCOCC3)cc1)OCO2 [Compound 7]
Return: no (0)

Enquiry: Hello, is EC50 of the following compound strictly smaller than 0.2 µg/mL? COC(=O)c1cc2c(c(OC)c1-c1ccc(N(C)C)cc1)OCO2 [Compound 5]
Return: yes (1)

Enquiry: Hello, is EC50 of the following compound strictly smaller than 0.2 µg/mL? Br.COC(=O)c1cc2c(c(OC)c1-c1ccc(N(C)C)cc1)OCO2 [Compound 11]
Return: no (0)

Enquiry: Hello, is EC50 of the following compound strictly smaller than 0.2 µg/mL? COC(=O)c1cc2c(c(OC)c1-c1ccc(N(C)C)cc1)OCO2.Cl [Compound 10]
Return: yes (1)

Enquiry: Hello, is EC50 of the following compound strictly smaller than 0.2 µg/mL? COC(=O)c1cc2c(c(OC)c1-c1ccc(N(c3ccccc3)c3ccccc3)cc1)OCO2 [Compound 8]
Return: no (0)

Enquiry: Hello, is EC50 of the following compound strictly smaller than 0.2 µg/mL? COC(=O)c1cc2c(c(OC)c1-c1ccc(N(C)C)c(C)c1)OCO2 [Compound 6]
Return: yes (1)

Enquiry: Hello, is EC50 of the following compound strictly smaller than 0.2 µg/mL? COC(=O)c1cc2c(c(OC)c1-c1ccc([N+](C)(C)Cc3ccccc3)cc1)OCO2.[Br-] [Compound 12]
Return: no (0)

---

Hi there, I'd appreciate the recorded CC50 at 3 days for every entry that follows.
method_summary: Cytotoxicity test on C8166 host cell (MTT colorimetry)
Assay type: cell-based
experimental_parameters: human, C8166 cells (T lymphocyte cell line), read-out: toxicity (CC50) 2
Respond with the bare value in µg/mL.

Enquiry: Using the record for COC(=O)c1cc2c(c(OC)c1-c1ccc(N(c3ccccc3)c3ccccc3)cc1)OCO2 , state its measured CC50 at 3 days.
Return: 245

Enquiry: Using the record for COc1c2c(cc(C(=O)O)c1-c1ccc(N(C)C)cc1)OCO2 , state its measured CC50 at 3 days.
Return: 205

Enquiry: Using the record for COC(=O)c1cc2c(c(OC)c1-c1ccc([N+](C)(C)Cc3ccccc3)cc1)OCO2.[Br-] , state its measured CC50 at 3 days.
Return: 26.6

Enquiry: Using the record for COC(=O)c1cc2c(c(OC)c1-c1ccc(N3CCOCC3)cc1)OCO2 , state its measured CC50 at 3 days.
Return: 317
